biological target: Beta-lactamase (Proteus mirabilis, UniProt P30897); assay: Concentration required for its inhibitory activity against Proteus mirabilis C889 class A beta-lactamase
Sequence (P30897 whole entry): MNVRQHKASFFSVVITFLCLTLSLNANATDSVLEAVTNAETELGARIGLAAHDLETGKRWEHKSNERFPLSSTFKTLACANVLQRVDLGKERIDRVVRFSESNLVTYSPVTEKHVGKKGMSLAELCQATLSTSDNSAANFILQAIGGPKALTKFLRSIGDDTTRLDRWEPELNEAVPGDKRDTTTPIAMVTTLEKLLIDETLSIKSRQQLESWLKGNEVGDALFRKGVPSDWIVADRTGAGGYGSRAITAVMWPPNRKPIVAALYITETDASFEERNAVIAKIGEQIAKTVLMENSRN
OBSERVABLE: IC50

Example entries and their recorded answers appear below.
>>> result("C=CC/C=C\\C/C=C\\CCCCCCCc1cccc(O)c1C(=O)O [ANACARDIC ACID]")
"31 µg/mL"
>>> result("CCCCCCCCCCCCCCCc1cccc(OC)c1C(=O)O")
"22 µg/mL"
>>> result("CCCCCCCCc1cccc(O)c1C(=O)O")
"3.9 µg/mL"

Please examine the following record next.
Task item: GET IC50 | system: Beta-lactamase (Proteus mirabilis, UniProt P30897) | item: `CCCCCCCCCCCCCCCCCc1cccc(O)c1C(=O)O`
Reply: 8.3 µg/mL
